- TESTED ON: TNKS2 (Homo sapiens)
- Sequence (Q9H2K2 whole entry): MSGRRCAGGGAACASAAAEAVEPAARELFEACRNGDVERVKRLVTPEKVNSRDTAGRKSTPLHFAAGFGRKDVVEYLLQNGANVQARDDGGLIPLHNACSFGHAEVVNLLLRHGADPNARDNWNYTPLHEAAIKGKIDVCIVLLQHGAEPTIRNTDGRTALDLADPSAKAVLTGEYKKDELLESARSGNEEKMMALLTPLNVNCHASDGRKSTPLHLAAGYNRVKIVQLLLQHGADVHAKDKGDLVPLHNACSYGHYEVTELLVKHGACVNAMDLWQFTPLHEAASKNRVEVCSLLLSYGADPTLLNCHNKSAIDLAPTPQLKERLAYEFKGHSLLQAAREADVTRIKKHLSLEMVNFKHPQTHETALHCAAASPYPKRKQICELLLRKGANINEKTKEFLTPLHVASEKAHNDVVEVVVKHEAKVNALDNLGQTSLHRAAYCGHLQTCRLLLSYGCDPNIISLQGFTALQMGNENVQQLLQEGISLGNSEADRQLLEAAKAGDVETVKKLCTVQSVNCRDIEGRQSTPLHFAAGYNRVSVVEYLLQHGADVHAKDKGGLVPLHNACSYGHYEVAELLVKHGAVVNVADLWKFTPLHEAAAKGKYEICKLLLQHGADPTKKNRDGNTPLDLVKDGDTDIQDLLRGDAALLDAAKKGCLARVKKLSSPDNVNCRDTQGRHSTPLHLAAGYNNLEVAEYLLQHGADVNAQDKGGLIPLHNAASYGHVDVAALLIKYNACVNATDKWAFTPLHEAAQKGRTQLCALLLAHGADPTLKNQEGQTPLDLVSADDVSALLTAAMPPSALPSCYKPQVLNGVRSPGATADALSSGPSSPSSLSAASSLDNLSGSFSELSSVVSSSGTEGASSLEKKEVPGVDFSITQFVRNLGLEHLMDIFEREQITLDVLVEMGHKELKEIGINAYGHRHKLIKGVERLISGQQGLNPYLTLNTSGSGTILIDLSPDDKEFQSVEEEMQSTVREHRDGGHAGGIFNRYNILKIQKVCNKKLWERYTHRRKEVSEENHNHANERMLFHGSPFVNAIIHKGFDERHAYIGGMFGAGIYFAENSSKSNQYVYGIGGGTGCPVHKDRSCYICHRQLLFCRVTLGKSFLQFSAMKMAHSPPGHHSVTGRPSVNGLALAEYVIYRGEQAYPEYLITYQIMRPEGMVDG
- EXPERIMENT DESCRIPTION: biochemical
- PARTICULARS: read-out: TNKS2 IC50; NAD+ consumption assay; > less than 50% inhibition at highest concentration, >> no inhibition
PARAMETER: IC50 (µM)
A number alone suffices; assume µM.

Recorded IC50, per entry:
> print(dat)
                                compound  reported.result
1  Cc1cc(C)c2c(c1)sc1nncn12 [Compound 2]              1.2
2   COc1ccc2c(c1)sc1nncn12 [Compound 12]              5.5

Here's the next entry for you.
Consider the compound Cc1cccc2c1sc1nncn12 [Compound 6] . State its measured IC50.
3.8

All figures here come from patent US20250177359A1.
